From: patent US20120316105A1

Attribute: AB-3167 MIC
system: AB-3167, clinical isolate of Acinetobacter baumannii; assay type: cell-based; settings: AB-3167, clinical isolate of
Bridge positions count the residues as written; N and C are the ends. Square brackets hold non-standard residues; d marks the D form. Peptide text beside a SMILES is read from it. * marks the point of attachment. Benzoyl(3-Ph) = O=C(c1cccc(-c2ccccc2)c1)*; Quinoline3carbonyl = O=C(c1cnc2ccccc2c1)*; X13 = N#Cc1ccc(-c2cc(C(=O)*)ccc2F)cc1; X21 = N#Cc1cccc(-c2cc(C(=O)*)ccn2)c1; X37 = COc1cc(C(=O)*)cc(-c2ccccc2)n1; X32 = N#Cc1cc(C(=O)*)ccc1-c1ccccc1; X39 = COc1ccc(C(=O)*)cc1-c1ccccc1; X6 = O=C(c1cccc(-c2ccc(F)cc2)c1)*; X28 = O=C(c1ccc(Oc2ccccc2)nc1)*; Dab = NCC[C@H](N)C(=O)O; Dap = NC[C@H](N)C(=O)O
// note: answer is a bare numeric in mg/L

Example entries and their recorded answers appear below.
Compound | Quantity Name | Readout Units | Number
CC(C)C[C@@H]1NC(=O)[C@@H](Cc2ccccc2)NC(=O)[C@H](CCN)NC(=O)[C@@H](NC(=O)[C@H](CN)NC(=O)[C@@H](NC(=O)[C@H](CCN)NC(=O)c2ccc(Oc3ccccc3)nc2)[C@@H](C)O)CCNC(=O)[C@H]([C@@H](C)O)NC(=O)[C@H](CCN)NC(=O)[C@H](CCN)NC1=O [Example 12] (X28-[Dab]T[Dap][Dab][Dab][dF]L[Dab][Dab]T; lactam 4-C) | AB-3167 MIC | mg/L | 0.25
CC(C)C[C@@H]1NC(=O)[C@@H](Cc2ccccc2)NC(=O)[C@H](CCN)NC(=O)[C@@H](NC(=O)[C@H](CN)NC(=O)[C@@H](NC(=O)[C@H](CCN)NC(=O)c2cccc(-c3ccccc3)c2)[C@@H](C)O)CCNC(=O)[C@H]([C@@H](C)O)NC(=O)[C@H](CCN)NC(=O)[C@H](CCN)NC1=O [Example 19] ({Benzoyl(3-Ph)}-[Dab]T[Dap][Dab][Dab][dF]L[Dab][Dab]T; lactam 4-C) | AB-3167 MIC | mg/L | 0.25
CC(C)C[C@@H]1NC(=O)[C@@H](Cc2ccccc2)NC(=O)[C@H](CCN)NC(=O)[C@@H](NC(=O)[C@H](CN)NC(=O)[C@@H](NC(=O)[C@H](CCN)NC(=O)c2cccc(-c3ccc(F)cc3)c2)[C@@H](C)O)CCNC(=O)[C@H]([C@@H](C)O)NC(=O)[C@H](CCN)NC(=O)[C@H](CCN)NC1=O [Example 20] (X6-[Dab]T[Dap][Dab][Dab][dF]L[Dab][Dab]T; lactam 4-C) | AB-3167 MIC | mg/L | 0.25
CC(C)C[C@@H]1NC(=O)[C@@H](Cc2ccccc2)NC(=O)[C@H](CCN)NC(=O)[C@@H](NC(=O)[C@H](CN)NC(=O)[C@@H](NC(=O)[C@H](CCN)NC(=O)c2cnc3ccccc3c2)[C@@H](C)O)CCNC(=O)[C@H]([C@@H](C)O)NC(=O)[C@H](CCN)NC(=O)[C@H](CCN)NC1=O [Example 23] (Quinoline3carbonyl-[Dab]T[Dap][Dab][Dab][dF]L[Dab][Dab]T; lactam 4-C) | AB-3167 MIC | mg/L | 0.5
COc1ccc(C(=O)N[C@@H](CCN)C(=O)N[C@H](C(=O)N[C@@H](CN)C(=O)N[C@H]2CCNC(=O)[C@H]([C@@H](C)O)NC(=O)[C@H](CCN)NC(=O)[C@H](CCN)NC(=O)[C@H](CC(C)C)NC(=O)[C@@H](Cc3ccccc3)NC(=O)[C@H](CCN)NC2=O)[C@@H](C)O)cc1-c1ccccc1 [Example 16] (X39-[Dab]T[Dap][Dab][Dab][dF]L[Dab][Dab]T; lactam 4-C) | AB-3167 MIC | mg/L | 0.5

Which AB-3167 MIC is reported for this compound? CC(C)C[C@@H]1NC(=O)[C@@H](Cc2ccccc2)NC(=O)[C@H](CCN)NC(=O)[C@@H](NC(=O)[C@H](CN)NC(=O)[C@@H](NC(=O)[C@H](CCN)NC(=O)c2ccc(F)c(-c3ccc(C#N)cc3)c2)[C@@H](C)O)CCNC(=O)[C@H]([C@@H](C)O)NC(=O)[C@H](CCN)NC(=O)[C@H](CCN)NC1=O [Example 33] (X13-[Dab]T[Dap][Dab][Dab][dF]L[Dab][Dab]T; lactam 4-C)
1

Next record, please: CC(C)C[C@@H]1NC(=O)[C@@H](Cc2ccccc2)NC(=O)[C@H](CCN)NC(=O)[C@@H](NC(=O)[C@H](CN)NC(=O)[C@@H](NC(=O)[C@H](CCN)NC(=O)c2ccc(-c3ccccc3)c(C#N)c2)[C@@H](C)O)CCNC(=O)[C@H]([C@@H](C)O)NC(=O)[C@H](CCN)NC(=O)[C@H](CCN)NC1=O [Example 8] (X32-[Dab]T[Dap][Dab][Dab][dF]L[Dab][Dab]T; lactam 4-C)
0.25

Next record, please: COc1cc(C(=O)N[C@@H](CCN)C(=O)N[C@H](C(=O)N[C@@H](CN)C(=O)N[C@H]2CCNC(=O)[C@H]([C@@H](C)O)NC(=O)[C@H](CCN)NC(=O)[C@H](CCN)NC(=O)[C@H](CC(C)C)NC(=O)[C@@H](Cc3ccccc3)NC(=O)[C@H](CCN)NC2=O)[C@@H](C)O)cc(-c2ccccc2)n1 [Example 35] (X37-[Dab]T[Dap][Dab][Dab][dF]L[Dab][Dab]T; lactam 4-C)
0.5

Next record, please: CC(C)C[C@@H]1NC(=O)[C@@H](Cc2ccccc2)NC(=O)[C@H](CCN)NC(=O)[C@@H](NC(=O)[C@H](CN)NC(=O)[C@@H](NC(=O)[C@H](CCN)NC(=O)c2ccnc(-c3cccc(C#N)c3)c2)[C@@H](C)O)CCNC(=O)[C@H]([C@@H](C)O)NC(=O)[C@H](CCN)NC(=O)[C@H](CCN)NC1=O [Example 15] (X21-[Dab]T[Dap][Dab][Dab][dF]L[Dab][Dab]T; lactam 4-C)
0.25
